Assay: Inhibition of HIV1 integrase 3' processing activity using 5'-end 32P labeled DNA substrate measured after 2 hrs by PAGE based phosphor imaging method
Parameters: species or system Human immunodeficiency virus 1
metric: pIC50
Bear in mind: pIC50 is minus log10 of a mol/L concentration; give just that figure.

Query: pIC50; subject: `Nc1c(C(=O)NCc2ccc(F)cc2F)c(=O)n(O)c2ncc(CCCOCCO)cc12`
5.82

What would you report for `COC(=O)CCc1cnc2c(c1)c(NCCO)c(C(=O)NCc1ccc(F)cc1F)c(=O)n2O` ?
5.49

Now consider `Nc1c(C(=O)NCc2ccc(F)cc2F)c(=O)n(O)c2ncc(CCc3ccccc3)cc12` and answer again.
4.32

Now the same for `COC(=O)CCc1cnc2c(c1)c(N)c(C(=O)NCc1ccc(F)cc1F)c(=O)n2O`
5.54

Param item: `O=C(NCc1ccc(F)cc1F)c1c(O)c2cc(CCCCCO)cnc2n(O)c1=O`
4.84

Also check `Nc1c(C(=O)NCc2ccc(F)cc2F)c(=O)n(O)c2ncc(CCCCCO)cc12`
5.09

Can you check `O=C(NCc1ccc(F)cc1F)c1c(NCCO)c2cc(CCCCCO)cnc2n(O)c1=O` next?
5.40

What do we get for `COc1ccc2c(O)c(C(=O)NCc3ccc(F)cc3F)c(=O)n(O)c2n1` ?
4.49

How about this compound: `Nc1c(C(=O)NCc2ccc(F)cc2F)c(=O)n(O)c2ncc(CCCCc3ccccc3)cc12`
4.38

Entry to check: `CC(=O)OCCCc1cnc2c(c1)c(N)c(C(=O)NCc1ccc(F)cc1F)c(=O)n2O`
4.84

# repeat for `Nc1c(C(=O)NCc2ccc(F)cc2F)c(=O)n(O)c2ncc(CCCC3CCCCC3)cc12`
3.54

Do the same for `CN(C)CCCc1cnc2c(c1)c(N)c(C(=O)NCc1ccc(F)cc1F)c(=O)n2O` please
5.52

`COc1ccc2c(N)c(C(=O)NCc3ccc(F)cc3F)c(=O)n(O)c2n1` , same question.
4.74

Same again, this time with `COC(=O)CNc1c(C(=O)NCc2ccc(F)cc2F)c(=O)n(O)c2nc(OC)ccc12`
4.70

Field entry: `COC(=O)CNc1c(C(=O)NCc2ccc(F)cc2F)c(=O)n(O)c2ncc(CCCCCO)cc12`
5.68
